These data points were gathered from patent US10087144B2.

Each entry below lists one item and its recorded pEC50 value.
# Test system: rat mesenteric arteries
# assay.comment: Vasoreactivity in rat mesenteric arteries in vitro (relaxation of U46619-contracted vessels, tension myograph)
# test.parameters: Rattus norvegicus; vasorelaxation, calculated from concentration-response curves
pEC50: −log10 of the molar value.
reported.property: pEC50

1. C[C@H](NC(=O)c1cn(Cc2ccccc2)c2ccccc2c1=O)C(=O)O ... 4.69
2. O=C(O)CNC(=O)c1c[nH]c2ccccc2c1=O ... 4.76
3. CC(C)C[C@H](NC(=O)c1cn(Cc2ccccc2)c2ccc(Br)cc2c1=O)C(=O)O ... < 4.30
4. O=C(O)CNC(=O)c1cn(Cc2cccc(Cl)c2)c2ccccc2c1=O ... < 4.30
5. O=C(O)CNC(=O)c1cn(Cc2ccccc2)c2ccc(Br)cc2c1=O ... 5.55
6. O=C(O)CNC(=O)c1cn(Cc2ccccc2Cl)c2ccccc2c1=O ... < 4.30
7. O=C(N[C@@H](Cc1ccccc1)C(=O)O)c1cn(Cc2ccccc2)c2ccccc2c1=O ... < 4.30
8. COc1ccc(Cn2cc(C(=O)NCC(=O)O)c(=O)c3ccccc32)cc1 ... < 4.30
9. CCn1cc(C(=O)NCC(=O)O)c(=O)c2ccccc21 ... < 4.30
10. O=C(O)CNC(=O)c1cn(Cc2ccccc2)c2ccccc2c1=O ... < 4.30
11. CC(C)(C)OC(=O)CNC(=O)c1cn(Cc2ccccc2)c2ccc(Br)cc2c1=O ... 5.80
12. CC(C)C[C@H](NC(=O)c1cn(Cc2ccccc2)c2ccccc2c1=O)C(=O)O ... < 4.30
